- target of assay: human somatostatin receptor subtype 2 (Homo sapiens, UniProt P30874)
- Construct: expressed in transfected cells
- assay: Functional assay for SSTR2 agonists (HTRF cAMP)
- Format: cell-based
- condition details: CHO-K1 cells stably expressing human SST2; NKH477-stimulated cAMP; 20 min at 37 C; read-out: hSST2 cAMP Avg EC50
Recorded pEC50 by entry
Conceptually, pEC50 converts a concentration in mol/L into minus its log10.

Worked set:
- compound: "CC[C@H](C)[C@@H]([C@@H](CC(=O)N1CCC[C@H]1[C@H](OC)[C@@H](C)C(=O)N[C@H](C)[C@@H](O)c1ccccc1)OC)N(C)C(=O)[C@@H](NC(=O)[C@H](C(C)C)N(C)C(=O)OCc1ccc(NC(=O)[C@H](CCCNC(N)=O)NC(=O)[C@@H](NC(=O)CCOCCC(=O)NCCNc2ncc(-c3cc(C)cc(F)c3)c(N3CCC(N)CC3)c2-c2nc3ccc(Cl)cc3[nH]2)C(C)C)c(OCCN)c1)C(C)C"
  pEC50: 9.68
- compound: "CC[C@H](C)[C@@H]([C@@H](CC(=O)N1CCC[C@H]1[C@H](OC)[C@@H](C)C(=O)N[C@H](C)[C@@H](O)c1ccccc1)OC)N(C)C(=O)[C@@H](NC(=O)[C@H](C(C)C)N(C)C(=O)OCc1ccc(NC(=O)[C@H](CCCNC(N)=O)NC(=O)[C@@H](NC(=O)C[C@@H](N)C(=O)NCCOCCC(=O)NCCNc2ncc(-c3cc(C)cc(F)c3)c(N3CCC(N)CC3)c2-c2nc3ccc(Cl)cc3[nH]2)C(C)C)c(O[C@@H](C)C(=O)O)c1)C(C)C"
  pEC50: 9.74
- compound: "CC[C@H](C)[C@@H]([C@@H](CC(=O)N1CCC[C@H]1[C@H](OC)[C@@H](C)C(=O)N[C@H](C)[C@@H](O)c1ccccc1)OC)N(C)C(=O)[C@@H](NC(=O)[C@H](C(C)C)N(C)C(=O)OCc1ccc(NC(=O)[C@H](C)NC(=O)[C@@H](NC(=O)C[C@@H](N)C(=O)NCCOCCC(=O)NCCNc2ncc(-c3cc(C)cc(F)c3)c(N3CCC(NC)CC3)c2-c2nc3ccc(Cl)cc3[nH]2)C(C)C)c(O[C@@H]2O[C@H](C(=O)O)[C@@H](O)[C@H](O)[C@H]2O)c1)C(C)C [Compound 120]"
  pEC50: 10.06

For the compound shown here, CC[C@H](C)[C@@H]([C@@H](CC(=O)N1CCC[C@H]1[C@H](OC)[C@@H](C)C(=O)N[C@H](C)[C@@H](O)c1ccccc1)OC)N(C)C(=O)[C@@H](NC(=O)[C@H](C(C)C)N(C)C(=O)OCc1ccc(NC(=O)[C@H](CCCNC(N)=O)NC(=O)[C@@H](NC(=O)Cn2cc(CCOCCC(=O)NCCNc3ncc(-c4cc(C)cc(F)c4)c(N4CCC(N)CC4)c3-c3nc4cc(Cl)ccc4[nH]3)nn2)C(C)C)c(O[C@@H]2O[C@H](C(=O)N3CCNCC3)[C@@H](O)[C@H](O)[C@H]2O)c1)C(C)C , give the reported pEC50.
9.92

Consider next the compound CC[C@H](C)[C@@H]([C@@H](CC(=O)N1CCC[C@H]1[C@H](OC)[C@@H](C)C(=O)N[C@H](C)[C@@H](O)c1ccccc1)OC)N(C)C(=O)[C@@H](NC(=O)[C@H](C(C)C)N(C)C(=O)OCc1ccc(NC(=O)[C@H](C)NC(=O)[C@@H](NC(=O)CCOCCC(=O)NCCNc2ncc(-c3cc(F)cc(OC)c3)c(N3CCC(N)CC3)c2-c2nc3ccc(Cl)cc3[nH]2)C(C)C)c(O[C@@H]2O[C@H](C(=O)O)[C@@H](O)[C@H](O)[C@H]2O)c1)C(C)C in the same way.
10.00

---

Recorded pEC50 by entry
- target of assay: human somatostatin receptor subtype 2 (Homo sapiens)
- Construct: expressed in transfected cells
- assay: Functional assay for SSTR2 agonists (HTRF cAMP)
- Type: cell-based
- condition details: CHO-K1 cells stably expressing human SST2; NKH477-stimulated cAMP; 20 min at 37 C; read-out: hSST2 cAMP Avg EC50
Conceptually, pEC50 converts a concentration in mol/L into minus its log10.

- compound: "CC[C@H](C)[C@@H]([C@@H](CC(=O)N1CCC[C@H]1[C@H](OC)[C@@H](C)C(=O)N[C@H](C)[C@@H](O)c1ccccc1)OC)N(C)C(=O)[C@@H](NC(=O)[C@H](C(C)C)N(C)C(=O)OCc1ccc(NC(=O)[C@H](C)NC(=O)[C@@H](NC(=O)[C@H](CCc2nnn[nH]2)NC(=O)CCOCCC(=O)NCCNc2ncc(-c3cc(C)cc(F)c3)c(N3CCC(N)CC3)c2-c2nc3ccc(Cl)cc3[nH]2)C(C)C)cc1C(=O)NCCN)C(C)C [Compound 66]"
  pEC50: 9.85

Then this compound:
For the compound shown here, CC[C@H](C)[C@@H]([C@@H](CC(=O)N1CCC[C@H]1[C@H](OC)[C@@H](C)C(=O)N[C@H](C)[C@@H](O)c1ccccc1)OC)N(C)C(=O)[C@@H](NC(=O)[C@H](C(C)C)N(C)C(=O)OCc1ccc(NC(=O)[C@H](C)NC(=O)[C@@H](NC(=O)[C@@H](CS(=O)(=O)O)NC(=O)CCOCCC(=O)NCCNc2ncc(-c3cc(C)cc(F)c3)c(N3CCC(N)CC3)c2-c2nc3ccc(Cl)cc3[nH]2)C(C)C)cc1C(=O)N1CC(C(=O)O)C1)C(C)C [Compound 78] , give the reported pEC50.
9.66

---

- target of assay: SST2 (Homo sapiens)
- Construct: host or cells: PathHunter CHO-K1 SST2 cells
- Sequence (P30874 whole entry): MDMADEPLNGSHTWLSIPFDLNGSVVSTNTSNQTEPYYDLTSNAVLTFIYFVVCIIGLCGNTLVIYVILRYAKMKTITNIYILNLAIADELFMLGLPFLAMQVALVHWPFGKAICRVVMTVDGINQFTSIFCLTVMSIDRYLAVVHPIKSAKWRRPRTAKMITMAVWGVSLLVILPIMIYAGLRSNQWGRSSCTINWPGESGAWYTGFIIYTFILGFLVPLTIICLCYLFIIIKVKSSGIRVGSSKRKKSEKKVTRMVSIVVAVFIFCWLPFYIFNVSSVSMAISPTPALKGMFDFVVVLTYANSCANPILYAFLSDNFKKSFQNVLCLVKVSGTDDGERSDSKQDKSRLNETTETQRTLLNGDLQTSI
- assay: PathHunter CHO-K1 SST2 Internalization Assay
- Assay type: cell-based
- condition details: PathHunter CHO-K1 SST2 cells; 90 min at 37 C; luminescence; read-out: Internalization EC50
measured metric: pEC50
Conceptually, pEC50 converts a concentration in mol/L into minus its log10.

- compound: "CC[C@H](C)[C@@H]([C@@H](CC(=O)N1CCC[C@H]1[C@H](OC)[C@@H](C)C(=O)N[C@H](C)[C@@H](O)c1ccccc1)OC)N(C)C(=O)[C@@H](NC(=O)[C@H](C(C)C)N(C)C(=O)OCc1ccc(NC(=O)[C@H](CCCNC(N)=O)NC(=O)[C@@H](NC(=O)CCOCCC(=O)N(C)CC(=O)NCCNc2ncc(-c3cc(C)cc(F)c3)c(N3CCC(N)CC3)c2-c2nc3ccc(Cl)cc3[nH]2)C(C)C)c(O[C@@H]2O[C@H](C(=O)O)[C@@H](O)[C@H](O)[C@H]2O)c1)C(C)C [Compound 133]"
  target of assay: "SST2 (Homo sapiens)"
  value reported: 8.28

Then this compound:
For the compound shown here, CC[C@H](C)[C@@H]([C@@H](CC(=O)N1CCC[C@H]1[C@H](OC)[C@@H](C)C(=O)N[C@H](C)[C@@H](O)c1ccccc1)OC)N(C)C(=O)[C@@H](NC(=O)[C@H](C(C)C)N(C)C(=O)OCc1ccc(NC(=O)[C@H](CCCNC(N)=O)NC(=O)[C@@H](NC(=O)CCOCCC(=O)NCCNc2ncc(-c3cc(C)cc(F)c3)c(N3CCC(N)CC3)c2-c2nc3ccc(Cl)cc3[nH]2)C(C)C)c(O[C@@H]2O[C@H](C(=O)NCCNC(=O)CCC(=O)NS(=O)(=O)c3ccc4ccccc4c3)[C@@H](O)[C@H](O)[C@H]2O)c1)C(C)C [Compound 224] , give the reported pEC50.
8.49

---

- target of assay: SST2 (Homo sapiens)
- Construct: host or cells: PathHunter CHO-K1 SST2 cells
- assay: PathHunter CHO-K1 SST2 Internalization Assay
- Format: cell-based
- condition details: PathHunter CHO-K1 SST2 cells; 90 min at 37 C; luminescence; read-out: Internalization EC50
Recorded pEC50 by entry
Conceptually, pEC50 converts a concentration in mol/L into minus its log10.

Worked set:
- compound: "CC[C@H](C)[C@@H]([C@@H](CC(=O)N1CCC[C@H]1[C@H](OC)[C@@H](C)C(=O)N[C@H](C)[C@@H](O)c1ccccc1)OC)N(C)C(=O)[C@@H](NC(=O)[C@H](C(C)C)N(C)C(=O)OCc1ccc(NC(=O)[C@H](CCCNC(N)=O)NC(=O)[C@@H](NC(=O)CCOCCC(=O)NCCNc2ncc(-c3cc(C)cc(F)c3)c(N3CCC(N)CC3)c2-c2nc3ccc(Cl)cc3[nH]2)C(C)C)c(O[C@@H]2O[C@H](C(=O)NCCCCCNC(=O)CCCCc3ccc(I)cc3)[C@@H](O)[C@H](O)[C@H]2O)c1)C(C)C [Compound 225]"
  pEC50: 8.72
- compound: "CC[C@H](C)[C@@H]([C@@H](CC(=O)N1CCC[C@H]1[C@H](OC)[C@@H](C)C(=O)N[C@H](C)[C@@H](O)c1ccccc1)OC)N(C)C(=O)[C@@H](NC(=O)[C@H](C(C)C)N(C)C(=O)OCc1ccc(NC(=O)[C@H](CCCNC(N)=O)NC(=O)[C@@H](NC(=O)CCOCCC(=O)NCCNc2ncc(-c3cc(C)cc(F)c3)c(N3CCC(N)CC3)c2-c2nc3ccc(Cl)cc3[nH]2)C(C)C)c(O[C@@H]2O[C@H](C(=O)N(C)C)[C@@H](O)[C@H](O)[C@H]2O)c1)C(C)C [Compound 217]"
  pEC50: 8.22

Then this compound:
What reported pEC50 corresponds to CC[C@H](C)[C@@H]([C@@H](CC(=O)N1CCC[C@H]1[C@H](OC)[C@@H](C)C(=O)N[C@H](C)[C@@H](O)c1ccccc1)OC)N(C)C(=O)[C@@H](NC(=O)[C@H](C(C)C)N(C)C(=O)OCc1ccc(NC(=O)[C@H](C)NC(=O)[C@@H](NC(=O)CCOCCOCCOCCOCCC(=O)NCCNc2ncc(-c3cc(C)cc(F)c3)c(N3CCC(N)CC3)c2-c2nc3ccc(Cl)cc3[nH]2)C(C)C)c(OCC(=O)O)c1)C(C)C [Compound 14] on SST2 (Homo sapiens)?
8.34
